# Test system: rituximab
# assay-overview: viscosity of highly concentrated rituximab solution, cone/plate rheometer
# Assay type: physicochemical
# condition-details: Table III; rituximab 196 mg/mL, 150 mM additive, pH 6.5 ± 0.2
assay-readout: % viscosity reduction relative to the control “protein alone”
Please answer in the form of a number followed by its unit of measurement.

Okay, here is my list. What is % viscosity reduction relative to the control “protein alone” for each of these?
1. Cl.N[C@H](CO)Cc1ccccc1
2. Cl.NC(=O)[C@@H](N)Cc1ccccc1 [RV 9, L-phenylalaninamide hydrochloride salt]
3. Cl.NCCOc1ccccc1 [RV 8, 2-phenoxyethylamine hydrochloride salt]
4. Cl.NC(Cc1ccccc1)C(=O)NCCO (stereo not drawn)
5. C[N+](C)(C)Cc1ccccc1.[Cl-] [RV 5, benzyltrimethylammonium chloride]
6. Cl.NCCc1ccc(O)c(O)c1 [RV 7, dopamine hydrochloride salt]
7. Cl.NCCc1ccccc1 [RV 6, 2-phenylethylamine hydrochloride salt]
8. [Cl-].[Na+] [NaCl, sodium chloride]

Result string:
1: 37%; 2: 48%; 3: 52%; 4: 43%; 5: 38%; 6: 39%; 7: 39%; 8: 21%

Query string: Lab note: need % viscosity reduction relative to the control “protein alone” with rituximab for entry Cl.N=C(N)NCCC[C@H](N)C(=O)O [Arg, L-arginine hydrochloride salt] , please look it up.
Result string: 58%

====

# Test system: infliximab
# assay-overview: viscosity of highly concentrated infliximab solution, cone/plate rheometer at 21° C.
# Format: physicochemical
# condition-details: Table II; infliximab 107 mg/mL, 150 mM additive, pH 7.2 ± 0.2
Give measured % viscosity reduction relative to the control “protein alone” for each item. Keep answers brief.
Give bare numbers, in %.

Past entries and their recorded results:
[[record]]
compound = "Cl.NCCc1ccccc1 [RV 6, 2-phenylethylamine hydrochloride salt]"
measured_number = 38

[[record]]
compound = "Cl.N[C@H](CO)Cc1ccccc1"
measured_number = 36


Batch request: % viscosity reduction relative to the control “protein alone” for each of the following compounds.
1. C[N+](C)(C)Cc1ccccc1.[Cl-] [RV 5, benzyltrimethylammonium chloride]
2. Cl.NC(=O)[C@@H](N)Cc1ccccc1 [RV 9, L-phenylalaninamide hydrochloride salt]
3. Cl.NC(Cc1ccccc1)C(=O)NCCO (stereo not drawn)
4. Cl.NCCc1ccc(O)c(O)c1 [RV 7, dopamine hydrochloride salt]
5. Cl.N=C(N)NCCC[C@H](N)C(=O)O [Arg, L-arginine hydrochloride salt]

Result string:
1: 49; 2: 52; 3: 56; 4: 38; 5: 32

Query string: Consider the compound Cl.NCCOc1ccccc1 [RV 8, 2-phenoxyethylamine hydrochloride salt] and give its measured % viscosity reduction relative to the control “protein alone”.
Result string: 46

Each recorded value in this set is attributed to patent US9278131B2.
